target: Casein kinase I isoform delta (Homo sapiens, UniProt P48730); test: Inhibition of wild-type human CK1delta using PLSRTLpSVASLPGL as substrate incubated for 40 mins in presence of ATP by Kinase-Glo luminescence assay
Sequence (P48730 whole entry, the tested form may be a part, canonical isoform): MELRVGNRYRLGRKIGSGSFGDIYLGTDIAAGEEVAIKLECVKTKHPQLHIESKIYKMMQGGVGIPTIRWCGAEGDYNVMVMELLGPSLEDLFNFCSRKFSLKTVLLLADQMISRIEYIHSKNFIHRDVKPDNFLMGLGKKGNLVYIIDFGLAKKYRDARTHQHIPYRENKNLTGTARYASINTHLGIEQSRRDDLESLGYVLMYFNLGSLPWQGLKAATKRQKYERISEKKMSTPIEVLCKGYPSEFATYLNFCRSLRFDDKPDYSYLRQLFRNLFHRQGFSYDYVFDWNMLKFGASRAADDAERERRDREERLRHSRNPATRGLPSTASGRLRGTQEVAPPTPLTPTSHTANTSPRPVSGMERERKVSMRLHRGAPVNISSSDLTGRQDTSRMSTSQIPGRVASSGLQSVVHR
measurement type: pIC50
Give bare numbers, as −log10 of the molar value.

Data request: Reported pIC50 for Nc1nccc(-c2c(-c3ccc(F)cc3)ncn2C2CCN(Cc3ccon3)CC2)n1 : what is it?
Data returned: 8.41

* * *

So I've got a bunch of molecules here, and I need their IC50 values.
biological target: Casein kinase I isoform delta (Homo sapiens, UniProt P48730); experiment: Inhibition of recombinant human N-terminal GST-tagged CK1delta (1 to 294 residues) using casein as substrate measured after 60 mins in presence of ATP by Kinase-Glo reagent-based luminescence assay
Numbers only, in nM.

Field: example entries. Status: answers known.
Nc1ncc(C(=O)O)c2nc(-c3cccc(O)c3)nn12	26700
Nc1nc(NC2CCCCC2)nc2nc(-c3cc(O)cc(O)c3)nn12	670

Data request: Reported IC50 for Nc1nc(NCc2ccc(F)cc2)nc2nc(-c3cc(O)cc(O)c3)nn12 : what is it?
Data returned: 470

* * *

target: Casein kinase I isoform delta (Homo sapiens, UniProt P48730); test: Inhibition of recombinant human N-terminal GST-tagged CK1delta (1 to 294 residues) at 40 uM using casein as substrate measured after 60 mins in presence of ATP by Kinase-Glo reagent-based luminescence assay relative to control
Sequence (P48730 whole entry, looked up, the tested form may be a part, canonical isoform): as the sequence (P48730 whole entry, the tested form may be a part, canonical isoform) above
measurement type: inhibition
In your response, the unit should come after the numeric value.

Field: example entries. Status: answers known.
CCOC(=O)c1cnc(N)n2nc(-c3cccc(N)c3)nc12	66.8%
NCCNC(=O)c1cnc(N)n2nc(-c3cc(O)cc(O)c3)nc12	93.6%
Nc1nc(NC2CCCCC2)nc2nc(-c3cc(O)cc(O)c3)nn12	89.3%

Look up inhibition for the entries below, preserving their order.
1. CCOC(=O)c1cnc(N)n2nc(-c3cccc(F)c3)nc12
2. CC(C)(C)OC(=O)NCCNC(=O)c1cnc(N)n2nc(-c3cc(O)cc(O)c3)nc12
3. Nc1nc(NCc2ccccc2)nc2nc(-c3ccc(O)c(O)c3)nn12
4. CCOC(=O)c1cnc(NCc2ccc(OC)c(OC)c2)n2nc(-c3ccccc3)nc12
5. CCOC(=O)c1cnc(N)n2nc(-c3cc4ccccc4[nH]3)nc12
6. Nc1nc(NCc2ccccc2)nc2nc(-c3ccc(O)cc3)nn12

Data returned:
1: 53.7%; 2: 84.2%; 3: 93.8%; 4: 35.7%; 5: 22.4%; 6: 70.4%

Look up inhibition for the entries below, preserving their order.
1. CCOC(=O)c1cnc(N)n2nc(-c3cc(OC)cc(OC)c3)nc12
2. Nc1nc(NCc2ccccc2)cc2nc(-c3cc(O)cc(O)c3)nn12
3. Nc1nc(NCc2ccccc2)cc2nc(-c3cccc(O)c3)nn12
4. Nc1nc(NCc2ccccc2)nc2nc(-c3cccc(O)c3)nn12
5. CCOC(=O)c1cnc(N)n2nc(-c3cc(O)cc(O)c3)nc12
6. CCOC(=O)c1cnc(N)n2nc(C)nc12
7. Nc1nc(NCc2ccc(Cl)cc2)nc2nc(-c3cc(O)cc(O)c3)nn12
8. Nc1ncc(C(=O)O)c2nc(-c3cccc(O)c3)nn12

Data returned:
1. 18.8%
2. 80.2%
3. 75.2%
4. 84.2%
5. 97.8%
6. 66.6%
7. 95.8%
8. 75.8%

Look up inhibition for the entries below, preserving their order.
1. COc1cc(O)cc(-c2nc3nc(NC4CCCCC4)nc(N)n3n2)c1
2. CCOC(=O)c1cnc(N)n2nc(C3CCCC3)nc12
3. CCOC(=O)c1cnc(N)n2nc(-c3ccc(O)cc3)nc12
4. COc1cc(OC)cc(-c2nc3nc(NCc4ccc(F)cc4)nc(N)n3n2)c1
5. CC(C)(C)OC(=O)NCCNC(=O)c1cnc(N)n2nc(-c3cccc(O)c3)nc12
6. Nc1nc(NCc2ccccc2)nc2nc(-c3cc(O)cc(O)c3)nn12

Data returned:
68.6%
76.8%
39.3%
10.5%
16.8%
85.3%
